biological target: Adenosine A2A (Homo sapiens (Human), UniProt P29274); assay: A2A Tag-Lite HTRF assay; format: binding; conditions: read-out: A2A_Ki; Tag-Lite Adenosine A2A labeled cells, fluorescent ligand 12.5 nM
Sequence (P29274 whole entry): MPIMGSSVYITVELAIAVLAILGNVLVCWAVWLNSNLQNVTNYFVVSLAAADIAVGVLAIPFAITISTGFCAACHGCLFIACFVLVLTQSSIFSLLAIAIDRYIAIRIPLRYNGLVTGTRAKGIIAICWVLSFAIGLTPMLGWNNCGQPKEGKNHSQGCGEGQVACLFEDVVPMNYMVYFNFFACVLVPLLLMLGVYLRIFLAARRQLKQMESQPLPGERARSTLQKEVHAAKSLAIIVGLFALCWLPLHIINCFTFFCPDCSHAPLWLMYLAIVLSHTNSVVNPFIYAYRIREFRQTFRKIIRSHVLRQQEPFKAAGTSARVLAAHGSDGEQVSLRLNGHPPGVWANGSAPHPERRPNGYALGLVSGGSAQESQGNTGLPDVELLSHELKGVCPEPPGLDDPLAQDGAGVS
pKi: −log10 of the molar value.
# key: entry, value: pKi

Before answering, review these 2 worked examples.
compound | assay.target | pKi
Cc1cnccc1-c1c(-c2cccc(C#N)c2)nc(N)c2nc(C(O)c3c(F)cccc3F)nn12 (single isomer, unassigned) | Adenosine A2A (Homo sapiens (Human), UniProt P29274) | > 8.00
N#Cc1cccc(-c2nc(N)c3nc(C(O)c4ccccc4Cl)nn3c2-c2ccncn2)c1 (single isomer, unassigned) | Adenosine A2A (Homo sapiens (Human), UniProt P29274) | > 8.00

# ---- query compound ----
# input compound: N#Cc1cccc(-c2nc(N)c3nc(C(O)c4cc(F)ccc4F)nn3c2-c2ccncn2)c1 (single isomer, unassigned) ; wanted: its pKi
> 8.00

* * *

target: human adenosine A2B receptor (Homo sapiens (Human)); assay: Adenosine A2B Receptor Cyclic AMP GS Assay; assay type: cell-based; conditions: A2B_cAMP_EC50 (nM), HEK-293 cells expressing human A2B, agonist NECA 12 nM
Sequence (P29275 whole entry): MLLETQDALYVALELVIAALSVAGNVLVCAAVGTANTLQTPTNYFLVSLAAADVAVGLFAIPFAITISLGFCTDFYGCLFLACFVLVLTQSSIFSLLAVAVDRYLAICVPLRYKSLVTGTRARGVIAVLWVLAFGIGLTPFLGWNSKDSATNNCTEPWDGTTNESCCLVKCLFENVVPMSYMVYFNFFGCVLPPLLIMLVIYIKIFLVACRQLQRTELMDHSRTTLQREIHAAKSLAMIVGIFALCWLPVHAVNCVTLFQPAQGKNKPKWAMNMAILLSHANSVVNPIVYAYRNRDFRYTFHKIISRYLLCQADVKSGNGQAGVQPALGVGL
# key: entry, value: EC50

molecule | assay.target | result
CCn1nccc1-c1c(-c2cccc(C#N)c2)nc(N)c2cc(Cc3ccccn3)nn12 [Example 18] | human adenosine A2B receptor (Homo sapiens (Human)) | < 10 nM
N#Cc1cccc(-c2nc(N)c3nc(C(O)c4c(F)cccc4F)nn3c2-c2ccncn2)c1 (single isomer, unassigned) [Example 49] | human adenosine A2B receptor (Homo sapiens (Human)) | < 10 nM
N#Cc1cccc(-c2nc(N)c3nc(Oc4ccccc4F)nn3c2-c2ccncn2)c1 [Example 39] | human adenosine A2B receptor (Homo sapiens (Human)) | < 10 nM
N#Cc1cccc(-c2nc(N)c3nc(C(O)c4c(F)cccc4CN4CCCC4)nn3c2-c2ccncn2)c1 (single isomer, unassigned) [Example 110] | human adenosine A2B receptor (Homo sapiens (Human)) | 100 to 1000 nM
CCc1ncoc1-c1c(-c2cccc(C#N)c2)nc(N)c2nc(Cc3ccccn3)nn12 [Example 43] | human adenosine A2B receptor (Homo sapiens (Human)) | < 10 nM
Cc1cc(-c2c(-c3cccc(C#N)c3)nc(N)c3nc(C(O)c4c(F)cccc4F)nn23)cc(C)n1 (single isomer, unassigned) [Example 94] | human adenosine A2B receptor (Homo sapiens (Human)) | 10 to 100 nM

# input molecule: Cn1cnc(S(=O)(=O)N2CCCC2Cc2nc3c(N)nc(-c4cccc(C#N)c4F)cn3n2)c1 (stereo not drawn) [Example 90] ; wanted: its EC50
100 to 1000 nM

# input molecule: N#Cc1cccc(-c2cn3nc(Cc4c(F)cccc4-c4cnn(Cc5ccccn5)c4)nc3c(N)n2)c1F [Example 107] ; wanted: its EC50
10 to 100 nM

# input molecule: Cc1ncoc1-c1c(-c2cccc(C#N)c2F)nc(N)c2nc(Cc3ccccn3)nn12 [Example 86] ; wanted: its EC50
< 10 nM

# input molecule: N#Cc1cccc(-c2cn3nc(Cc4ncccc4Nc4cnn(C5CCOCC5)c4)nc3c(N)n2)c1F [Example 121] ; wanted: its EC50
10 to 100 nM

# input molecule: Cn1nc(-c2c(-c3cccc(C#N)c3)nc(N)c3nc(C(N)c4c(F)cccc4F)nn23)ccc1=O (stereo not drawn) [Example 81] ; wanted: its EC50
< 10 nM

# input molecule: CC(=O)N1CCC(Cc2cccc(F)c2Cc2nc3c(N)nc(-c4cccc(C#N)c4F)cn3n2)CC1 [Example 91] ; wanted: its EC50
10 to 100 nM

# input molecule: N#Cc1cccc(-c2nc(N)c3nc(C(=O)N4CCC4)nn3c2-c2ccncc2F)c1 [Example 125] ; wanted: its EC50
10 to 100 nM

# input molecule: N#CCCn1cc(-c2cccc(F)c2Cc2nc3c(N)nc(-c4cccc(C#N)c4F)cn3n2)cn1 [Example 117] ; wanted: its EC50
< 10 nM

# input molecule: N#Cc1cccc(-c2nc(N)c3cc(Cc4ccccc4F)nn3c2C#N)c1 [Example 20] ; wanted: its EC50
< 10 nM
